targetEntity: mGluR5 (Homo sapiens)
Construct: expressed in transfected cells
Sequence (P41594 21-1180 isoform P41594-2 limits assumed): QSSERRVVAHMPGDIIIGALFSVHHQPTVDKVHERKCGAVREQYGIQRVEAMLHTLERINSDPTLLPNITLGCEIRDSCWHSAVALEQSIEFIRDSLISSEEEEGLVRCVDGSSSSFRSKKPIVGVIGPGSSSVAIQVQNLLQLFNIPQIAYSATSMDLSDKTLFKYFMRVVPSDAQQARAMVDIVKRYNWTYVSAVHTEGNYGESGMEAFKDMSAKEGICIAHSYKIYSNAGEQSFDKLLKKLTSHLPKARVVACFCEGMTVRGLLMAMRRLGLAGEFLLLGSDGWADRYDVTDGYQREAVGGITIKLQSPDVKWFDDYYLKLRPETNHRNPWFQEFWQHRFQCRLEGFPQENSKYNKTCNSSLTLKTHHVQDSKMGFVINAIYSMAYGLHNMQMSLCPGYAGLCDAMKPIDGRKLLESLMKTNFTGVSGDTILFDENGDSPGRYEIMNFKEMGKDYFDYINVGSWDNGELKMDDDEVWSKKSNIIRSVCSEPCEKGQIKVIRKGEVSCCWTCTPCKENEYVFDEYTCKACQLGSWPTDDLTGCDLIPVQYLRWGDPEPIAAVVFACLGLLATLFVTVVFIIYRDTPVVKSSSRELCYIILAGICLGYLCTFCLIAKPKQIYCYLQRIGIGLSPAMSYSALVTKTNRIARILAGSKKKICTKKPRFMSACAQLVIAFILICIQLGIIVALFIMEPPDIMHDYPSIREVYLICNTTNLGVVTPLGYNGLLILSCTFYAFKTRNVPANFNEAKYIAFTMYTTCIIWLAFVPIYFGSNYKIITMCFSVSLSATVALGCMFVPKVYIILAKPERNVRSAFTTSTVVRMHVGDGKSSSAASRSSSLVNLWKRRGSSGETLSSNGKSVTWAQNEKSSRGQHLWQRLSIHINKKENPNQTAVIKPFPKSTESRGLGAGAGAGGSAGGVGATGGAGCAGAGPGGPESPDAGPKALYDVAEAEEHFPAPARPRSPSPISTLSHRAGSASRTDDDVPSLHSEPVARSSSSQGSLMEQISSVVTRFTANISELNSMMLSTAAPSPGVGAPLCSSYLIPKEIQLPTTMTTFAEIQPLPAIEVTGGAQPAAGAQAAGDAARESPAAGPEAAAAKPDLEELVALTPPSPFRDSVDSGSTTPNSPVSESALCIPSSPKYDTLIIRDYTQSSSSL
test: inhibition of the glutamate induced elevation of intracellular Ca2+-concentration
Assay type: cell-based
runConditions: inhibition of glutamate induced elevation of intracellular Ca2+-concentration at a concentration of 10 μM
From the text: This can be determined in vitro for example at recombinant human metabotropic glutamate receptors, especially PLC-coupled subtypes thereof such as mGluR5, using different procedures like, for example, measurement of the inhibition of the agonist induced elevation of intracellular Ca^2+ concentration in accordance with L. P. Daggett et al., Neuropharm.
Parameter mGluR5 Activity inh. at 10 μM [%]: see the listing below.
Give the value in % but do not write % after it.

compound | unitsOfMeasure | experimentalResult
CCC[C@H]1CCCCN1C(=O)c1cnc(Nc2ccc(C)nc2)c(Cl)c1 | % | 85

Consider the compound shown here: C[C@H]1CCCN(C(=O)c2ccc(Nc3ccc(Cl)cc3)nc2)C1 [Compound 1.12a] What is its recorded mGluR5 Activity inh. at 10 μM [%]? 99

Same lookup for CCOCC1CCCCN1C(=O)c1cnc(Nc2ccc(C)nc2)c(Cl)c1 (stereo not drawn) , please. 97
